System: A498
experimental-details: NCI in vitro mini panel, Renal A498
Assay type: cell-based, Human
test-parameters: 48 hrs
quantity-measured: TGI (µg/mL)
Answers are plain numbers, in µg/mL.

// worked examples, TGI included
substance: Dov-Val-Dil-Dap Octyl ester [Compound 16b]
quantity-measured: TGI
unit-label: µg/mL
value-measured: 0.55

substance: Dov-ile-Dil-Dap-Met-OMe [Compound 14]
quantity-measured: TGI
unit-label: µg/mL
value-measured: 0.035

Query :: Given the substance Dov-Val-Dil-Dap Pentyl ester [Compound 16a] , write its reported TGI.
Result :: 0.18

----------
For each record, write down the corresponding LC-50.
Tested on: NCI-H460
experimental-details: NCI in vitro mini panel, Lung-NSC NCI-H460
Type: cell-based, Human
test-parameters: 48 hrs

Hi, could you look up LC-50 for each item in my list?
1. Dov-ile-Dil-Dap-Met-OMe [Compound 14]
2. Dov-Val-Dil-Dap Octyl ester [Compound 16b]

Result ::
1. > 1 µg/mL
2. > 1 µg/mL

Provide each entry's LC-50 from the list below.
1. Dov-Val-Dil-Dap hexylamide [Compound 16c]
2. Dov-Val-Dil-Dap Pentyl ester [Compound 16a]

Result ::
["> 0.01 µg/mL", "> 1 µg/mL"]

----------
Tested on: OVCAR-3
experimental-details: NCI in vitro mini panel, Ovarian OVCAR-3
Format: cell-based, Human
test-parameters: 48 hrs
Procedure: ED50 (P388) and GI50 (HTCL) identify the drug dose which reduces the percent tumor/cell growth to 50%. There is no mathematical difference between ED50 and GI50, both of which are calculated using the same formula. The only difference is historical usage. […] Each drug is tested at five (5) doses: 100-10-1-0.1-0.01--μg/mL. Percent Growths are calculated for each dose. […] For each of six cell lines, GI50, TGI, and LC50 amounts were also calculated for each of the compounds. […]
quantity-measured: LC-50

// known answers, use as guide
substance: Dov-Val-Dil-Dap Pentyl ester [Compound 16a]
LC-50: > 1 µg/mL

substance: Dov-Val-Dil-Dap hexylamide [Compound 16c]
LC-50: > 0.01 µg/mL

substance: Dov-ile-Dil-Dap-Met-OMe [Compound 14]
LC-50: > 1 µg/mL

Query :: Please indicate LC-50 recorded for Dov-Val-Dil-Dap Octyl ester [Compound 16b]
Result :: > 1 µg/mL

----------
Test system: KM20L2
experimental-details: NCI in vitro mini panel, Colon KM20L2
Format: cell-based, Human
test-parameters: 48 hrs
quantity-measured: LC-50

substance: Dov-Val-Dil-Dap Pentyl ester [Compound 16a]
value-measured: > 1 µg/mL
--
substance: Dov-ile-Dil-Dap-Met-OMe [Compound 14]
value-measured: > 1 µg/mL
--
substance: Dov-Val-Dil-Dap Octyl ester [Compound 16b]
value-measured: > 1 µg/mL

Kindly consider the entry below.
Query :: Entry Dov-Val-Dil-Dap hexylamide [Compound 16c] needs its LC-50 filled in; supply it.
Result :: > 0.01 µg/mL

----------
Tested on: SK-MEL-5
experimental-details: NCI in vitro mini panel, Melanoma SK-MEL-5
Type: cell-based, Human
test-parameters: 48 hrs
quantity-measured: TGI (µg/mL)
Numbers only, in µg/mL.

substance: Dov-ile-Dil-Dap-Met-OMe [Compound 14]
TGI / µg/mL: 0.022

Now examine the next entry.
Query :: # return recorded TGI for input Dov-Val-Dil-Dap Pentyl ester [Compound 16a]
Result :: 0.031

----------
Tested on: A498
experimental-details: NCI in vitro mini panel, Renal A498
Assay type: cell-based, Human
test-parameters: 48 hrs
quantity-measured: LC-50

substance: Dov-Val-Dil-Dap hexylamide [Compound 16c]
experimental-system: A498
value-measured: > 0.01 µg/mL
//
substance: Dov-Val-Dil-Dap Octyl ester [Compound 16b]
experimental-system: A498
value-measured: > 1 µg/mL
//
substance: Dov-ile-Dil-Dap-Met-OMe [Compound 14]
experimental-system: A498
value-measured: > 1 µg/mL

We next turn to a different substance, shown below.
Query :: Find the measured LC-50 of Dov-Val-Dil-Dap Pentyl ester [Compound 16a] with A498 as test system.
Result :: > 1 µg/mL

----------
I'd be grateful if you could share measured GI-50 for these entries.
Tested on: A498
experimental-details: NCI in vitro mini panel, Renal A498
Format: cell-based, Human
test-parameters: 48 hrs
Protocol: ED50 (P388) and GI50 (HTCL) identify the drug dose which reduces the percent tumor/cell growth to 50%. There is no mathematical difference between ED50 and GI50, both of which are calculated using the same formula. The only difference is historical usage. […] Each drug is tested at five (5) doses: 100-10-1-0.1-0.01--μg/mL. Percent Growths are calculated for each dose. […] For each of six cell lines, GI50, TGI, and LC50 amounts were also calculated for each of the compounds. […]
Answers are plain numbers, in µg/mL.

Here's what some known entries look like.
substance: Dov-ile-Dil-Dap-Met-OMe [Compound 14]
quantity-measured: GI-50
unit-label: µg/mL
value-measured: 0.00027
//
substance: Dov-Val-Dil-Dap Octyl ester [Compound 16b]
quantity-measured: GI-50
unit-label: µg/mL
value-measured: 0.025

Please look at the following substance next.
Query :: Tell me GI-50 reported for Dov-Val-Dil-Dap hexylamide [Compound 16c]
Result :: 0.0019

----------
System: SF-295
experimental-details: NCI in vitro mini panel, CNS SF-295
Assay type: cell-based, Human
test-parameters: 48 hrs
quantity-measured: LC-50

substance: Dov-Val-Dil-Dap hexylamide [Compound 16c]
LC-50: > 0.01 µg/mL
//
substance: Dov-Val-Dil-Dap Octyl ester [Compound 16b]
LC-50: > 1 µg/mL
//
substance: Dov-ile-Dil-Dap-Met-OMe [Compound 14]
LC-50: > 1 µg/mL

Moving on to another substance below.
Query :: Give a short answer stating reported LC-50 for Dov-Val-Dil-Dap Pentyl ester [Compound 16a] .
Result :: > 1 µg/mL

----------
Test system: PS-388
experimental-details: PS-388 Mouse Leukemia cell line test
Type: cell-based
test-parameters: Mouse Leukemia PS-388
Experimental: ED50 (P388) and GI50 (HTCL) identify the drug dose which reduces the percent tumor/cell growth to 50%. There is no mathematical difference between ED50 and GI50, both of which are calculated using the same formula. The only difference is historical usage. Each drug is tested at five (5) doses: 100-10-1-0.1-0.01--μg/mL. Percent Growths are calculated for each dose. […] For each of six cell lines, GI50, TGI, and LC50 amounts were also calculated for each of the compounds. […]
quantity-measured: ED-50 (µg/mL)
One number for each entry, in µg/mL.

For each of the items listed, what is its ED-50?
1. Dov-Val-Dil-Dap hexylamide [Compound 16c]
2. Dov-ile-Dil-Dap-Met-OMe [Compound 14]
3. Dov-Val-Dil-Dap Octyl ester [Compound 16b]
4. Dov-Val-Dil-Dap Pentyl ester [Compound 16a]

Result ::
[0.00227, 0.00032, 0.029, 0.021]

Origin of measurements: patent US5521284A
